Tested on: IFNγ-induced NO production in RAW 264.7 cells
Assay: Nitric Oxide Suppression Assay (IFNγ-induced NO, Griess nitrite readout)
Type: cell-based, mouse
Conditions: Table 2; ratio to RTA402
Quantity Name: Avg NO IC50 Relative to RTA402 (fold)

Example entries and their recorded answers appear below.
COC(=O)N[C@]12CC[C@@H](C)[C@H](C)[C@H]1[C@H]1C(=O)C=C3[C@@]4(C)C=C(C#N)C(=O)C(C)(C)[C@@H]4CC[C@@]3(C)[C@]1(C)CC2 ... 4.64
C[C@@H]1[C@H]2[C@H]3C(=O)C=C4[C@@]5(C)C=C(C#N)C(=O)C(C)(C)[C@@H]5CC[C@@]4(C)[C@]3(C)CC[C@@]2(CN2CCC2=O)CC[C@H]1C ... 1.27
C[C@@H]1[C@H]2[C@H]3C(=O)C=C4[C@@]5(C)C=C(C#N)C(=O)C(C)(C)[C@@H]5CC[C@@]4(C)[C@]3(C)CC[C@@]2(CC(=O)N2CCC2)CC[C@H]1C ... 3.06

[P] COC(=O)CC[C@]12CC[C@@H](C)[C@H](C)[C@H]1[C@H]1C(=O)C=C3[C@@]4(C)C=C(C#N)C(=O)C(C)(C)[C@@H]4CC[C@@]3(C)[C@]1(C)CC2
[Q] C[C@@H]1[C@H]2[C@H]3C(=O)C=C4[C@@]5(C)C=C(C#N)C(=O)C(C)(C)[C@@H]5CC[C@@]4(C)[C@]3(C)CC[C@@]2(CNS(=O)(=O)C2CC2)CC[C@H]1C
Request: Could you kindly indicate whether P or Q has the higher Avg NO IC50 Relative to RTA402 (fold) value? Field: selected label. Fill in the label of the entry you choose.
Response: P
(P: 9.13 fold, Q: 2.32 fold)

###

Tested on: Nrf2 / ARE-dependent luciferase in AREc32 reporter cell line
Assay: AREc32 luciferase reporter activation (Nrf2 induction)
Format: cell-based, human
Conditions: Table 2; ratio to RTA402
Method: Effect on Ludferase Reporter Activation. Nrf2 is a transcription factor that binds to the antioxidant response element (ARE) sequence in the promoter regions of its target genes. […] Measurement of ARE-dependent luciferase activity allows quantitative assessment of Nrf2 induction. […] The effect of several compounds disclosed herein on luciferase reporter activation was assessed in the AREc32 reporter cell line (see Table 10 and Table 11). […]
The following compounds are listed with their measured Relative Avg AREc32 EC2X Relative to RTA402 (fold) values.
Write the number in fold without appending the unit.

C[C@@H]1[C@H]2[C@H]3C(=O)C=C4[C@@]5(C)C=C(C#N)C(=O)C(C)(C)[C@@H]5CC[C@@]4(C)[C@]3(C)CC[C@@]2(Cn2cnnn2)CC[C@H]1C [Compound T52] ... 0.654
C[C@@H]1[C@H]2[C@H]3C(=O)C=C4[C@@]5(C)C=C(C#N)C(=O)C(C)(C)[C@@H]5CC[C@@]4(C)[C@]3(C)CC[C@@]2(n2cnnn2)CC[C@H]1C [Compound T61] ... 0.601

Request: Give the reported Relative Avg AREc32 EC2X Relative to RTA402 (fold) for this compound. CNC(=O)CC[C@]12CC[C@@H](C)[C@H](C)[C@H]1[C@H]1C(=O)C=C3[C@@]4(C)C=C(C#N)C(=O)C(C)(C)[C@@H]4CC[C@@]3(C)[C@]1(C)CC2 [Compound T78]
Response: 0.194

Request: Give the reported Relative Avg AREc32 EC2X Relative to RTA402 (fold) for this compound. C[C@@H]1[C@H]2[C@H]3C(=O)C=C4[C@@]5(C)C=C(C#N)C(=O)C(C)(C)[C@@H]5CC[C@@]4(C)[C@]3(C)CC[C@@]2(Cn2cccn2)CC[C@H]1C [Compound T46]
Response: 2.06

Request: Give the reported Relative Avg AREc32 EC2X Relative to RTA402 (fold) for this compound. COC(=O)C[C@]12CC[C@@H](C)[C@H](C)[C@H]1[C@H]1C(=O)C=C3[C@@]4(C)C=C(C#N)C(=O)C(C)(C)[C@@H]4CC[C@@]3(C)[C@]1(C)CC2 [Compound T88]
Response: 1.03

Request: Give the reported Relative Avg AREc32 EC2X Relative to RTA402 (fold) for this compound. COC(=O)N1CCC(=O)N1C[C@]12CC[C@@H](C)[C@H](C)[C@H]1[C@H]1C(=O)C=C3[C@@]4(C)C=C(C#N)C(=O)C(C)(C)[C@@H]4CC[C@@]3(C)[C@]1(C)CC2 [Compound T53]
Response: 0.173

Request: Give the reported Relative Avg AREc32 EC2X Relative to RTA402 (fold) for this compound. C[C@@H]1[C@H]2[C@H]3C(=O)C=C4[C@@]5(C)C=C(C#N)C(=O)C(C)(C)[C@@H]5CC[C@@]4(C)[C@]3(C)CC[C@@]2(C(=O)NC2CC2)CC[C@H]1C [Compound T86]
Response: 2.12

Request: Give the reported Relative Avg AREc32 EC2X Relative to RTA402 (fold) for this compound. C[C@@H]1[C@H]2[C@H]3C(=O)C=C4[C@@]5(C)C=C(C#N)C(=O)C(C)(C)[C@@H]5CC[C@@]4(C)[C@]3(C)CC[C@@]2(CNCCO)CC[C@H]1C [Compound T40]
Response: 1.2

Request: Give the reported Relative Avg AREc32 EC2X Relative to RTA402 (fold) for this compound. C[C@@H]1[C@H]2[C@H]3C(=O)C=C4[C@@]5(C)C=C(C#N)C(=O)C(C)(C)[C@@H]5CC[C@@]4(C)[C@]3(C)CC[C@@]2(CN2C(=O)CCC2=O)CC[C@H]1C [Compound T75]
Response: 0.242

Request: Give the reported Relative Avg AREc32 EC2X Relative to RTA402 (fold) for this compound. C[C@@H]1[C@H]2[C@H]3C(=O)C=C4[C@@]5(C)C=C(C#N)C(=O)C(C)(C)[C@@H]5CC[C@@]4(C)[C@]3(C)CC[C@@]2(Cn2ccnc2)CC[C@H]1C [Compound T51]
Response: 1.2

###

Tested on: Nrf2 / ARE-dependent luciferase in AREc32 reporter cell line
Experiment: AREc32 luciferase reporter activation (Nrf2 induction)
Assay type: cell-based, human
Conditions: Homo sapiens, Arec32; Table 3; oleanolic acid derivative analogs; read-out: Avg ARE EC-2X
The following compounds are listed with their measured EC (2-fold) values.
Write the number in µM without appending the unit.

Example entries and their recorded answers appear below.
CC1(C)CC[C@]2(Cn3cncn3)CC[C@]3(C)[C@H](C(=O)C=C4[C@@]5(C)C=C(C#N)C(=O)C(C)(C)[C@@H]5CC[C@]43C)[C@@H]2C1 [CC47, reference compound] ... 0.0107
CC1(C)CC[C@]2(Cn3ccnc3)CC[C@]3(C)[C@H](C(=O)C=C4[C@@]5(C)C=C(C#N)C(=O)C(C)(C)[C@@H]5CC[C@]43C)[C@@H]2C1 [CC51, reference compound] ... 0.018
CN(C)Cc1noc([C@]23CCC(C)(C)C[C@H]2[C@H]2C(=O)C=C4[C@@]5(C)C=C(C#N)C(=O)C(C)(C)[C@@H]5CC[C@@]4(C)[C@]2(C)CC3)n1 [CC8, reference compound] ... 0.00372
Cc1nnc([C@]23CCC(C)(C)C[C@H]2[C@H]2C(=O)C=C4[C@@]5(C)C=C(C#N)C(=O)C(C)(C)[C@@H]5CC[C@@]4(C)[C@]2(C)CC3)o1 [CC69, reference compound] ... 0.00981

Now let's try a different one.
Request: Give the reported EC (2-fold) for this compound. CC1(C)CC[C@]2(N3CCCC3=O)CC[C@]3(C)[C@H](C(=O)C=C4[C@@]5(C)C=C(C#N)C(=O)C(C)(C)[C@@H]5CC[C@]43C)[C@@H]2C1 [CC58, reference compound]
Response: 0.0379

###

System: Nrf2 / ARE-dependent luciferase in AREc32 reporter cell line
Assay: AREc32 luciferase reporter activation (Nrf2 induction)
Format: cell-based, human
Settings: Table 2; ratio to RTA402
The following compounds are listed with their measured Relative Avg AREc32 EC2X Relative to RTA402 (fold) values.
Write the number in fold without appending the unit.

C[C@@H]1[C@H]2[C@H]3C(=O)C=C4[C@@]5(C)C=C(C#N)C(=O)C(C)(C)[C@@H]5CC[C@@]4(C)[C@]3(C)CC[C@@]2(n2ccnc2)CC[C@H]1C ... 1.55
CNC(=O)NC[C@]12CC[C@@H](C)[C@H](C)[C@H]1[C@H]1C(=O)C=C3[C@@]4(C)C=C(C#N)C(=O)C(C)(C)[C@@H]4CC[C@@]3(C)[C@]1(C)CC2 ... 0.177
C[C@@H]1[C@H]2[C@H]3C(=O)C=C4[C@@]5(C)C=C(C#N)C(=O)C(C)(C)[C@@H]5CC[C@@]4(C)[C@]3(C)CC[C@@]2(n2ccnn2)CC[C@H]1C ... 0.791
C[C@@H]1[C@H]2[C@H]3C(=O)C=C4[C@@]5(C)C=C(C#N)C(=O)C(C)(C)[C@@H]5CC[C@@]4(C)[C@]3(C)CC[C@@]2(c2nc(CCO)no2)CC[C@H]1C ... 0.224
C[C@@H]1[C@H]2[C@H]3C(=O)C[C@@H]4[C@@]5(C)C=C(C#N)C(=O)C(C)(C)[C@@H]5CC[C@@]4(C)[C@]3(C)CC[C@@]2(CCC(=O)N2CCC2)CC[C@H]1C ... 10.7
C[C@@H]1[C@H]2[C@H]3C(=O)C=C4[C@@]5(C)C=C(C#N)C(=O)C(C)(C)[C@@H]5CC[C@@]4(C)[C@]3(C)CC[C@@]2(CN2NCCC2=O)CC[C@H]1C ... 0.403
C[C@@H]1[C@H]2[C@H]3C(=O)C=C4[C@@]5(C)C=C(C#N)C(=O)C(C)(C)[C@@H]5CC[C@@]4(C)[C@]3(C)CC[C@@]2(CNC(=O)N2CCC2)CC[C@H]1C ... 0.144
C[C@@H]1[C@H]2[C@H]3C(=O)C=C4[C@@]5(C)C6O[C@@]6(C#N)C(=O)C(C)(C)[C@@H]5CC[C@@]4(C)[C@]3(C)CC[C@@]2(CNC(=O)C2CC2)CC[C@H]1C (stereo partly drawn) ... 0.574

Request: Report value: Relative Avg AREc32 EC2X Relative to RTA402 (fold), system: Nrf2 / ARE-dependent luciferase in AREc32 reporter cell line, compound: C[C@@H]1[C@H]2[C@H]3C(=O)C=C4[C@@]5(C)C=C(C#N)C(=O)C(C)(C)[C@@H]5CC[C@@]4(C)[C@]3(C)CC[C@@]2(CN(C)C(=O)C(C)(F)F)CC[C@H]1C
Response: 2.76
